All figures here come from ChEMBL document CHEMBL4665666.

Experimental Target: Rhodesain (Trypanosoma brucei rhodesiense) (UniProt Q95PM0)
Sequence (Q95PM0 1-450): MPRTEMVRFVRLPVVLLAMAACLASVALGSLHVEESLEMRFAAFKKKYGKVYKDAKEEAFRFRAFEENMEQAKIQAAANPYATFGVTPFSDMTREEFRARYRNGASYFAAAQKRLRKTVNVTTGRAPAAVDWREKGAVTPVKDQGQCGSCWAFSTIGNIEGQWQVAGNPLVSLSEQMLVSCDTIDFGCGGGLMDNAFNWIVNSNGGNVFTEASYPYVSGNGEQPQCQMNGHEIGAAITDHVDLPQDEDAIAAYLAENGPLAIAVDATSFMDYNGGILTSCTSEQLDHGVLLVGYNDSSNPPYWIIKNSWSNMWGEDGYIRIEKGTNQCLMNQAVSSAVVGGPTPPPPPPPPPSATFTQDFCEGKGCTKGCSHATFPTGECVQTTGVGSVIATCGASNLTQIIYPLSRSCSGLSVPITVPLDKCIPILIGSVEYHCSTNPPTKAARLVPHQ
Method Notes: Inhibition of recombinant Trypanosoma brucei rhodesain expressed in Pichia pastoris at 5 uM using Z-FR-AMC as substrate preincubated for 10 mins followed by substrate addition and measured at 12 sec interval for 5 mins by fluorimetric analysis relative to control
Cond: time 15.0 min
Readout Label: inhibition

INSERT INTO results (smiles_str, result) VALUES
  ('Nc1ccc(-c2nc3cc(Cc4ccc5[nH]c(-c6ccc(N)cc6)nc5c4)ccc3[nH]2)cc1', '90.1%'),
  ('CC(C)(C)c1ccc2c(c1)CN(Cc1ccc(Cl)cc1)CO2', '61.3%'),
  ('COc1cc(OC)c(N(C)C(=O)c2cc3c(s2)-c2ccccc2S(=O)(=O)C3)cc1Cl', '57.9%'),
  ('CCOc1ccc(C2N(C)c3ccccc3N2C)cc1', '57.7%'),
  ('COc1nc(Nc2ccc(C(C)C)cc2)nc(OC)n1', '53.8%'),
  ('CC(=O)c1ccc(NC(=O)CSc2nc(-c3ccccc3Cl)ns2)cc1', '67.5%');

###

# inhibition per entry
Experimental Target: UniProt:Q95PM0
Method Notes: Inhibition of recombinant Trypanosoma brucei rhodesain expressed in Pichia pastoris at 10 uM using Z-FR-AMC as substrate preincubated for 10 mins followed by substrate addition and measured at 12 sec interval for 5 mins by fluorimetric analysis relative to control
Cond: time 15.0 min
Readout Label: inhibition (%)

INSERT INTO measurements (smiles_str, readout_label, result_number) VALUES
  ('Cc1cc(Nc2ccc(C)c(Cl)c2)n2nc(C(F)(F)F)nc2n1', 'inhibition', 1),
  ('Cl.Cl.Clc1cc(Br)ccc1-c1ccc(CNCC2CCNCC2)o1', 'inhibition', 2),
  ('CCOC(=O)c1c(C)n(-c2ccccc2)c2ccc(OC(=O)c3cc(OC)c(OC)c(OC)c3)cc12', 'inhibition', 14);

###

Experimental Target: Rhodesain (Trypanosoma brucei rhodesiense) (UniProt Q95PM0)
Method Notes: Inhibition of recombinant Trypanosoma brucei rhodesain expressed in Pichia pastoris at 100 uM using Z-FR-AMC as substrate and measured at 12 sec interval for 5 mins without preincubation by fluorimetric analysis relative to control
Readout Label: inhibition

INSERT INTO results (compound, result) VALUES
  ('COCCNCC(O)Cn1c2ccc(Cl)cc2c2cc(Cl)ccc21 (stereo not given)', '38%'),
  ('Cc1cc(Nc2ccc(C)c(Cl)c2)n2nc(C(F)(F)F)nc2n1', '16%'),
  ('COCCNC(=O)c1ccc(OC2CCN(Cc3ccc(F)c(F)c3)CC2)c(Cl)c1', '63%'),
  ('FC(F)(F)c1cccc(CNC2CCN(CCc3ccccc3)CC2)c1', '12%'),
  ('c1ccc(CNc2nc(Nc3ccccc3)nc3ccccc23)cc1', '85%');

###

Experimental Target: Cruzipain (Trypanosoma cruzi)
Method Notes: Inhibition of recombinant Trypanosoma cruzi cruzain at 100 uM preincubated for 10 mins in presence of 0.01% Triton X-100 relative to control
Readout Label: inhibition (%)

INSERT INTO measurements (compound, readout_label, result_number) VALUES
  ('Cl.Cl.Clc1cc(Br)ccc1-c1ccc(CNCC2CCNCC2)o1', 'inhibition', 67.1),
  ('Cn1c(=O)n(C)c2cc(CNCCNc3ccnc4cc(Cl)ccc34)ccc21', 'inhibition', 74.8),
  ('COCCNC(=O)c1ccc(OC2CCN(Cc3ccc(F)c(F)c3)CC2)c(Cl)c1', 'inhibition', 68.2),
  ('COCCNCC(O)Cn1c2ccc(Cl)cc2c2cc(Cl)ccc21 (centres undefined)', 'inhibition', 25.5);
